experimentalSystem: GDP-bound KRAS wild-type protein (Homo sapiens)
Sequence (P01116 whole entry): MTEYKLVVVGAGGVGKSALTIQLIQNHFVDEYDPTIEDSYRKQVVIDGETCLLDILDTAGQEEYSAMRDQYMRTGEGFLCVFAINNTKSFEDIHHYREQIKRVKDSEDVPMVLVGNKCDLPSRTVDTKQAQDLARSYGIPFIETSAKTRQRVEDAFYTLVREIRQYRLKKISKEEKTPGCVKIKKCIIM
testMethodNotes: Binding to KRAS by surface plasmon resonance (SPR), Single Cycle Kinetics
conditionDescription: SPR, Single Cycle Kinetics, GDP-bound KRAS wild-type protein; read-out: KRAS KD
Kd listing for selected compounds.

- compound: "CCCN(C)C(=O)[C@@H]1CC(=O)N(C)[C@@H](CC(F)F)C(=O)N[C@@H]([C@@H](C)CC)C(=O)N(C)CC(=O)N(C)[C@H]2C/C=C\\CCN(C2=O)[C@@H](Cc2ccc(C(F)(F)F)cc2)C(=O)N(C)CC(=O)N[C@@H](CCc2ccc(C(F)(F)F)c(OC)c2)C(=O)N2C[C@H](OCC)C[C@H]2C(=O)NC2(CC(C)(C)C2)C(=O)N(C)[C@@H](C2CCCC2)C(=O)N1C [PP2010]"
  Kd: "0.14 nM"
- compound: "CCO[C@@H]1C[C@H]2C(=O)NC3(CCC3)C(=O)N(C)[C@@H](C3CCCC3)C(=O)N(C)[C@H](C(=O)N3CCOCC3)CC(=O)N(C)[C@@H](CC)C(=O)N[C@@H]([C@@H](C)CC)C(=O)N3CC[C@H]3C(=O)N(C)[C@H]3C[C@@H](C)CCN(C3=O)[C@@H](Cc3ccc(C(F)(F)F)cc3)C(=O)N(C)CC(=O)N[C@@H](CCc3cc(F)c(C(F)(F)F)c(F)c3)C(=O)N2C1 [PP1028]"
  Kd: "0.099 nM"
- compound: "CC[C@H](C)[C@@H]1NC(=O)[C@H](COC)N(C)C(=O)C[C@@H](C(=O)N(C)C)N(C)C(=O)[C@H](C2CCCC2)N(C)C(=O)C2(CC(C)(C)C2)NC(=O)[C@@H]2C[C@H](C)CN2C(=O)[C@H](CCc2ccc(C(F)(F)F)c(OC)c2)NC(=O)CN(C)C(=O)[C@H](Cc2ccc(C)cc2)N2CC/C=C\\C[C@@H](C2=O)N(C)C(=O)[C@@H]2C[C@H](OC)CN2C1=O [PP2390]"
  Kd: "0.28 nM"
